- system: His-tagged p53-Y220C DNA binding domain (Homo sapiens, UniProt P04637, Y220C)
- protocolNotes: Biochemical p53-Y220C and DNA binding assay (HTRF)
- cond: inflection point of 10 points dose titration, 4 parameter curve fit; p53-Y220C DBD 100 nM, biotinylated dsDNA 200 nM, 27 to 29° C.; read-out: HTRF IP
measurementType: EC50

Given item `OCC1(O/N=C/c2sc3c(N[C@@H]4CNC[C@@H]4F)cccc3c2CC(F)(F)F)CCOCC1` , the value recorded as its EC50 is > 1000 nM

Given item `OCC1(O/N=C/c2sc3c(N[C@@H]4CNC[C@@H]4F)cccc3c2CC(F)(F)F)CCCCC1` , the value recorded as its EC50 is > 1000 nM

Given item `CN1CC[C@@H](Nc2cccc3c(CC(F)(F)F)c(/C=C/CNc4cccnc4)sc23)[C@@H](F)C1` , the value recorded as its EC50 is 100 to 1000 nM

Given item `CN1CC[C@@H](Nc2cccc3c(CC(F)(F)F)c(/C=N/OCc4nc5ccccc5[nH]4)sc23)[C@@H](F)C1` , the value recorded as its EC50 is 100 to 1000 nM

Given item `COc1cccc(CO/N=C/c2sc3c(N[C@@H]4CCN(C)C[C@@H]4F)cccc3c2CC(F)(F)F)n1` , the value recorded as its EC50 is 100 to 1000 nM

Given item `F[C@H]1CNC[C@H]1Nc1cccc2c(CC(F)(F)F)c(/C=N/OCc3ccccn3)sc12` , the value recorded as its EC50 is 100 to 1000 nM

Given item CN1CC[C@@H](Nc2cccc3c2cc(-c2noc(CNC(=O)c4cnn(C(C)(C)C)c4)n2)n3CC(F)(F)F)[C@@H](F)C1 [Reference Compound 1, reference compound] , the value recorded as its EC50 is < 100 nM

Given item OC1(CO/N=C/c2sc3c(N[C@@H]4CNC[C@@H]4F)cccc3c2CC(F)(F)F)CCCNC1 (stereo partly drawn) , the value recorded as its EC50 is > 1000 nM

Given item COCC(CO)O/N=C/c1sc2c(N[C@@H]3CNC[C@@H]3F)cccc2c1CC(F)(F)F (stereo partly drawn) , the value recorded as its EC50 is > 1000 nM

Given item OC(CO/N=C/c1sc2c(N[C@@H]3CCNC[C@@H]3F)cccc2c1CC(F)(F)F)c1ccccc1 (stereo partly drawn) , the value recorded as its EC50 is 100 to 1000 nM

Given item O=c1cccc(C(O)/C=C/c2sc3c(N[C@@H]4CNC[C@@H]4F)cccc3c2CC(F)(F)F)[nH]1 (stereo partly drawn) , the value recorded as its EC50 is 100 to 1000 nM

Given item CC(O/N=C/c1sc2c(N[C@@H]3CNC[C@@H]3F)cccc2c1CC(F)(F)F)c1cccnc1 (stereo partly drawn) , the value recorded as its EC50 is 100 to 1000 nM

Given item OCC(O)CO/N=C/c1sc2c(N[C@@H]3CNC[C@@H]3F)cccc2c1CC(F)(F)F (stereo partly drawn) , the value recorded as its EC50 is 100 to 1000 nM

Given item CS(=O)(=O)N1CC(O)C(O/N=C/c2sc3c(N[C@@H]4CNC[C@@H]4F)cccc3c2CC(F)(F)F)C1 (stereo partly drawn) , the value recorded as its EC50 is 100 to 1000 nM

Given item OC1COCC1O/N=C/c1sc2c(N[C@@H]3CNC[C@@H]3F)cccc2c1CC(F)(F)F (stereo partly drawn) , the value recorded as its EC50 is < 100 nM

Given item `Cc1nnc(CO/N=C/c2sc3c(N[C@@H]4CNC[C@@H]4F)cccc3c2CC(F)(F)F)o1` , the value recorded as its EC50 is 100 to 1000 nM

Given item OCC1(O/N=C/c2sc3c(N[C@@H]4CNC[C@@H]4F)cccc3c2CC(F)(F)F)CCNC1 (stereo partly drawn) , the value recorded as its EC50 is > 1000 nM

Given item `F[C@H]1CNC[C@H]1Nc1cccc2c(CC(F)(F)F)c(/C=N/OC3CCC3)sc12` , the value recorded as its EC50 is 100 to 1000 nM

Given item OC1CCCCC1O/N=C/c1sc2c(N[C@@H]3CNC[C@@H]3F)cccc2c1CC(F)(F)F (stereo partly drawn) , the value recorded as its EC50 is 100 to 1000 nM

Given item `COC(=O)NC/C=C/c1sc2c(N[C@@H]3CCN(C)C[C@@H]3F)cccc2c1CC(F)(F)F` , the value recorded as its EC50 is 100 to 1000 nM

Given item `CC(C)(O)CO/N=C/c1sc2c(N[C@@H]3CNC[C@@H]3F)cccc2c1CC(F)(F)F` , the value recorded as its EC50 is < 100 nM

Given item `CN1CC[C@@H](Nc2cccc3c(CC(F)(F)F)c(/C=N\OCc4cccc(=O)n4C)sc23)[C@@H](F)C1` , the value recorded as its EC50 is 100 to 1000 nM

Given item `O=C(OCc1ccccc1)N1CCC(CO)(O/N=C/c2sc3c(N[C@@H]4CNC[C@@H]4F)cccc3c2CC(F)(F)F)CC1` , the value recorded as its EC50 is > 1000 nM

Given item NCC(CO)O/N=C/c1sc2c(N[C@@H]3CNC[C@@H]3F)cccc2c1CC(F)(F)F (stereo partly drawn) , the value recorded as its EC50 is > 1000 nM
